# Lookup of reported TGI keyed by entry
Test system: MALME-3M melanoma
test description: NCI tumour cell line growth inhibition, 48 h
Please respond with the number in µM and leave the unit unwritten.

The cases that follow already have their TGI on record.
Data point: CC1=C(CCC=O)C2=C(C)C3(CC3)[C@@](C)(O)C(=O)C2=C1 ; TGI = 0.266

Data point: C#C[C@]1(O)CC[C@H]2[C@@H]3CC=C4c5sc(Nc6ccc(C(F)(F)F)cn6)nc5CC[C@]4(C)[C@H]3CC[C@@]21C ; TGI = 14.1

With those in mind, consider the next molecule.
Data point: N[C@@H](CSSC[C@H](N)C(=O)Nc1ccc(OCC2CCCC2)cc1)C(=O)Nc1ccc(OCC2CCCC2)cc1 ; TGI = 19.6

* * *

Test system: NCI-H522 lung
test description: NCI tumour cell line growth inhibition, 48 h
value kind: TGI (µM)
Please respond with the number in µM and leave the unit unwritten.

The cases that follow already have their TGI on record.
Data point: CC1=C(CCC=O)C2=C(C)C3(CC3)[C@@](C)(O)C(=O)C2=C1 ; TGI = 0.369

Data point: N[C@@H](CSSC[C@H](N)C(=O)Nc1ccc(OCC2CCCC2)cc1)C(=O)Nc1ccc(OCC2CCCC2)cc1 ; TGI = 3.03

With those in mind, consider the next compound.
Data point: C#C[C@]1(O)CC[C@H]2[C@@H]3CC=C4c5sc(Nc6ccc(C(F)(F)F)cn6)nc5CC[C@]4(C)[C@H]3CC[C@@]21C ; TGI = 16.2

* * *

System: HOP-92 NSCLC
test description: NCI tumour cell line growth inhibition, 48 h
# Lookup of reported TGI keyed by entry
Please respond with the number in µM and leave the unit unwritten.

Data point: Cc1noc2c(Cc3ccccc3)nn(CC(=O)N/N=C/c3ccc(Cl)cc3)c(=O)c12 ; TGI = 16.6

Data point: N#Cc1c(-c2ccc(Cl)cc2)nc2n[nH]c(-c3ccc(Cl)cc3)c2c1-c1ccc(C(F)(F)F)cc1 ; TGI = 4.37

With those in mind, consider the next molecule.
Data point: C#C[C@]1(O)CC[C@H]2[C@@H]3CC=C4c5sc(Nc6ccc(C(F)(F)F)cn6)nc5CC[C@]4(C)[C@H]3CC[C@@]21C ; TGI = 26.1

* * *

Test system: MDA-MB-468 breast
test description: NCI tumour cell line growth inhibition, 48 h; in the data active = GI50 below about 0.43 µM; inactive = the rest
Assign a class; possible classes are 1.0 (active), 0.0 (inactive)

Would you please look over these solved cases?
Ask | What classification did N#CC1=C(N)Oc2c(sc3c(F)cccc23)C1c1ccc(F)cc1 (configuration not stated) end up with in this test?
Reply | 0.0

Ask | What classification did N[C@@H](CSSC[C@H](N)C(=O)Nc1ccc(OCC2CCCC2)cc1)C(=O)Nc1ccc(OCC2CCCC2)cc1 end up with in this test?
Reply | 0.0

Ask | What classification did O=C1/C(=C/c2ccc(Cl)cc2)COc2ccc(O)c(O)c21 end up with in this test?
Reply | 0.0

Ask | What classification did CCCN(CCC)C(=O)[C@H](CC)[C@@H]1CC[C@@H](C)[C@@H]([C@H](C)[C@@H](O)[C@@H](C)C(=O)[C@H](CC)C2O[C@]3(C=C[C@@H](O)[C@]4(CC[C@@](C)([C@H]5CC[C@](O)(CC)[C@H](C)O5)O4)O3)[C@H](C)C[C@@H]2C)O1 (some centres not stated) end up with in this test?
Reply | 0.0

Ask | What classification did COc1ccc([C@H]2[C@H](O)C(=O)N2c2cc(OC)c(OC)c(OC)c2)cc1Cl end up with in this test?
Reply | 1.0

Further cases:
Ask | What classification did CS(=O)(=O)Nc1cc(-c2ccc3ncnc(Nc4ccc5c(cnn5Cc5ccccc5F)c4)c3c2)cnc1Cl end up with in this test?
Reply | 0.0

Ask | What classification did COc1ccc2nc(C)cc(Nc3ccccc3O)c2c1 end up with in this test?
Reply | 0.0

* * *

System: MDA-MB-468 breast
test description: NCI tumour cell line growth inhibition, 48 h
# Lookup of reported TGI keyed by entry

The cases that follow already have their TGI on record.
Data point: C=CC(=O)Nc1cccc(C)c1Nc1ncc2cc(-c3c(Cl)c(OC)cc(OC)c3Cl)ccc2n1 ; TGI = 6.28 µM

Data point: CCC(C)[C@H]1C(=O)O[C@H](C(C)C)C(=O)N(C)[C@@H](C(C)C)C(=O)O[C@H](C(C)C)C(=O)N(C)[C@@H](C(C)C)C(=O)O[C@H](C(C)C)C(=O)N1C (stereo partly specified) ; TGI = > 10 µM

Data point: OC(CNC1CCCC1)Cn1c2ccccc2c2ccccc21 (stereo unspecified) ; TGI = > 100 µM

Data point: COc1cccc2c(=O)c3c(sc12)c(NCCN(C)C)nc1ccccc13 ; TGI = 3.15 µM

Data point: CS(=O)(=O)Nc1cc(-c2ccc3ncnc(Nc4ccc5c(cnn5Cc5ccccc5F)c4)c3c2)cnc1Cl ; TGI = 2.56 µM

Data point: CCCN(CCC)C(=O)[C@H](CC)[C@@H]1CC[C@@H](C)[C@@H]([C@H](C)[C@@H](O)[C@@H](C)C(=O)[C@H](CC)C2O[C@]3(C=C[C@@H](O)[C@]4(CC[C@@](C)([C@H]5CC[C@](O)(CC)[C@H](C)O5)O4)O3)[C@H](C)C[C@@H]2C)O1 (stereo partly specified) ; TGI = 5.33 µM

Further cases:
Data point: OC(CNc1ccnc2cc(Cl)ccc12)CNC1CCCCC1 (stereo unspecified) ; TGI = 3.79 µM

Data point: O=C(/C=C/c1ccc(C(F)(F)F)cc1)c1ccc(Nc2nc(NCCO)nc(N3CCOCC3)n2)cc1 ; TGI = 3.86 µM

Data point: O=C(CCCCCCC(=O)Nc1ccc2c(c1)/C(=C/c1ccc[nH]1)C(=O)N2)NO ; TGI = 2.09 µM

Data point: COC(=O)[C@@]1(O)C[C@H]2O[C@]1(C)n1c3ccccc3c3c4c(c5c6ccccc6n2c5c31)C(=O)NC4 ; TGI = 3.06 µM

Data point: COc1ccc(/C=C/C(=O)c2cc3c(N)c(C(=O)Nc4ccccc4)sc3nc2C)cc1 ; TGI = > 41.7 µM

Data point: Cc1noc2c(Cc3ccccc3)nn(CC(=O)N/N=C/c3ccc(Cl)cc3)c(=O)c12 ; TGI = 36.2 µM

Data point: C=C1CC[C@@H]2[C@](C)(COC(C)=O)[C@H](OC(C)=O)CC[C@@]2(C)[C@@H]1C/C=C1/C(=O)OC[C@H]1OC(C)=O ; TGI = 5.69 µM

Data point: N#Cc1ccc(C(=O)CSc2nc3c(c(Nc4ccc(S(N)(=O)=O)cc4)n2)CCC3)cc1 ; TGI = > 22.5 µM

Data point: COCCNC(=O)c1ccc(-c2nc3ccc4[nH]ncc4c3c3c2CCCC3)cc1 ; TGI = 50 µM

Data point: CC1=C(CCC=O)C2=C(C)C3(CC3)[C@@](C)(O)C(=O)C2=C1 ; TGI = 0.239 µM

* * *

# Lookup of reported GI50 keyed by entry
System: TK-10 renal
test description: NCI tumour cell line growth inhibition, 48 h

The cases that follow already have their GI50 on record.
Data point: N[C@@H](CSSC[C@H](N)C(=O)Nc1ccc(OCC2CCCC2)cc1)C(=O)Nc1ccc(OCC2CCCC2)cc1 ; GI50 = 1760 nM

Data point: Cc1noc2c(Cc3ccccc3)nn(CC(=O)N/N=C/c3ccc(Cl)cc3)c(=O)c12 ; GI50 = 1900 nM

Data point: C#C[C@]1(O)CC[C@H]2[C@@H]3CC=C4c5sc(Nc6ccc(C(F)(F)F)cn6)nc5CC[C@]4(C)[C@H]3CC[C@@]21C ; GI50 = 6830 nM

With those in mind, consider the next compound.
Data point: N#Cc1ccc(C(=O)CSc2nc3c(c(Nc4ccc(S(N)(=O)=O)cc4)n2)CCC3)cc1 ; GI50 = > 22500 nM
